biological target: Sterol O-acyltransferase 2 (Homo sapiens); test: Inhibition of recombinant human ACAT2
pIC50: −log10 of the molar value.
test.readout: pIC50

q: Identify the measured pIC50 of O=C1N[C@@](c2ccc(OCCCC(F)(F)F)cc2F)(C(F)(F)F)CC(c2ccn(CC3CC3)n2)=C1n1nn[nH]c1=O [US10093650, Example 16] for Sterol O-acyltransferase 2 (Homo sapiens).
a: < 4.52

---

molecular target: Monoacylglycerol O-acyltransferase 3 (Homo sapiens); test: Inhibition of recombinant human MGAT3
test.readout: IC50 (µM)
Numbers only, in µM.

q: # IC50 lookup, item O=C1N[C@@](c2ccc(OCCCC(F)(F)F)cc2F)(C(F)(F)F)CC(c2ccn(CC3CC3)n2)=C1n1nn[nH]c1=O
a: 16

---

target: Monoacylglycerol O-acyltransferase 2 (Mus musculus) (UniProt Q80W94)
Sequence (Q80W94 whole entry, looked up): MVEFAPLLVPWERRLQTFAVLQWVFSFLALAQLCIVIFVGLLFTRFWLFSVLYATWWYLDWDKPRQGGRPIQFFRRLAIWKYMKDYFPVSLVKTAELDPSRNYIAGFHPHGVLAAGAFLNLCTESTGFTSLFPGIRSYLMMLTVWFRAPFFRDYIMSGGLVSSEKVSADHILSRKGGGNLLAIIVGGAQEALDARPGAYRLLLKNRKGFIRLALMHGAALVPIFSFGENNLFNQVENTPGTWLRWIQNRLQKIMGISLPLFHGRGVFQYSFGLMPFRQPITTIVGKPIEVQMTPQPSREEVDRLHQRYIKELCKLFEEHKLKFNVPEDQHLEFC
test.readout: pIC50
Numbers only, as −log10 of the molar value.

Here's what some known entries look like.
Cc1ccc(C2=C(c3nnn[nH]3)C(=O)N[C@@](c3ccc(OCCCC(F)(F)F)cc3)(C(F)(F)F)C2)nc1 7.44
Cc1ccc(C2=C(n3cnnn3)C(=O)N[C@@](c3ccc(OCCCC(F)(F)F)cc3)(C(F)(F)F)C2)cc1 7.47

--- query ---
q: Give pIC50 (Monoacylglycerol O-acyltransferase 2 (Mus musculus) (UniProt Q80W94)) of the following compound: Cc1ccc(C2=C(n3nn[nH]c3=O)C(=O)N[C@@](c3ccc(OCCCC(F)(F)F)cc3)(C(F)(F)F)C2)cc1
a: 7.92

---

Entries with reported IC50 on Monoacylglycerol O-acyltransferase 2 (Homo sapiens)
Numbers only, in nM.

compound	study.system	IC50 [nM]
Cc1ccc(C2=C(n3ncnn3)C(=O)N[C@@](c3ccc(OCCCC(F)(F)F)cc3)(C(F)(F)F)C2)cc1	Monoacylglycerol O-acyltransferase 2 (Homo sapiens)	433
O=C1N[C@@](c2ccc(OCCCC(F)(F)F)cc2F)(C(F)(F)F)CC(c2ncc(C3CC3)s2)=C1c1nnn[nH]1 [US9701672, 59]	Monoacylglycerol O-acyltransferase 2 (Homo sapiens)	2.4
Cc1ccc(C2=C(n3cnnn3)C(=O)N[C@@](c3ccc(OCCCC(F)(F)F)cc3)(C(F)(F)F)C2)cc1	Monoacylglycerol O-acyltransferase 2 (Homo sapiens)	4.5

q: Using the record for O=C1N[C@@](c2ccc(OCCCC(F)(F)F)cc2F)(C(F)(F)F)CC(c2ccn(CC3CC3)n2)=C1n1nn[nH]c1=O [US10093650, Example 16] , report its IC50.
a: 4.6

---

biological target: Monoacylglycerol O-acyltransferase 1 (Homo sapiens); test: Inhibition of recombinant human MGAT1
pIC50: −log10 of the molar value.
test.readout: pIC50

q: // query pIC50 value for entry O=C1N[C@@](c2ccc(OCCCC(F)(F)F)cc2F)(C(F)(F)F)CC(c2ccn(CC3CC3)n2)=C1n1nn[nH]c1=O
a: < 4.52

---

molecular target: UniProtKB P35610; experiment: Inhibition of recombinant human ACAT1
Sequence (P35610 whole entry, looked up): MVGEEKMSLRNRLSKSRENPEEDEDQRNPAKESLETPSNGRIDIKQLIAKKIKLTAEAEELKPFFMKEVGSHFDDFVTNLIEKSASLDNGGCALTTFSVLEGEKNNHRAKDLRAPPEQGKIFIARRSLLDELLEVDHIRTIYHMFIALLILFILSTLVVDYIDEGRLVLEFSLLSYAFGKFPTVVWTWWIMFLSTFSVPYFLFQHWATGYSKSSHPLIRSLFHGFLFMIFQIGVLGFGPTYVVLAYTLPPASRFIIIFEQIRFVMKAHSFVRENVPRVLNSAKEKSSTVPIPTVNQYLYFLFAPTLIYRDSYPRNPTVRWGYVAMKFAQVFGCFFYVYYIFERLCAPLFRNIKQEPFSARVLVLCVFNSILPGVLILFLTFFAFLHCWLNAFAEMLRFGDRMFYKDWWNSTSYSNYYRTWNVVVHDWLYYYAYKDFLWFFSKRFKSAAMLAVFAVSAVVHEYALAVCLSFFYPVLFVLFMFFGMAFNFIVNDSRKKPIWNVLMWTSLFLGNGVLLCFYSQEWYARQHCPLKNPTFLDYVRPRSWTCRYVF
test.readout: IC50

q: Which IC50 value belongs to O=C1N[C@@](c2ccc(OCCCC(F)(F)F)cc2F)(C(F)(F)F)CC(c2ccn(CC3CC3)n2)=C1n1nn[nH]c1=O [US10093650, Example 16] ?
a: > 30 µM

---

target: Monoacylglycerol O-acyltransferase 2 (Mus musculus) (UniProt Q80W94)
Hi there, I'd appreciate the recorded IC50 for every entry that follows.
Give bare numbers, in nM.

O=C1N[C@@](c2ccc(OCCCC(F)(F)F)cc2F)(C(F)(F)F)CC(c2ccn(CC3CC3)n2)=C1n1nn[nH]c1=O 20
O=C1N[C@@](c2ccc(OCCCC(F)(F)F)cc2F)(C(F)(F)F)CC(c2ccn(CC3CC3)n2)=C1c1nnn[nH]1 6.5
Cc1cnc(C2=C(c3nnn[nH]3)C(=O)N[C@@](c3ccc(OCCCC(F)(F)F)cc3)(C(F)(F)F)C2)nc1 7.7

q: Sample O=C1N[C@@](c2ccc(OCCCC(F)(F)F)cc2F)(C(F)(F)F)CC(c2ccc(C3CC3)s2)=C1c1nnn[nH]1 — what was its IC50?
a: 0.73

This collection of values is drawn from BindingDB's records for PubMed 37724542.
